Below, each entry is listed alongside its reported survival.
tested on: DeltatarO mutant; experiment: S. aureus survival, RN4220 and DeltatarO strains – OD600, teichoic acid synthesis inhibitors, primary screen (AID 463173); conditions: S. aureus RN4220 wild type/DeltatarO growth, OD600, 18 h, active compounds read low, screened at 18.75 µg/mL (by protocol)
The campaign covered roughly 52,000 compounds. About 4,300 (8.3%) were called active. For the sample, actives were picked, then their nearest neighbours and some compounds at random.
Respond numerically; units are % and should not be typed.

Answered cases to consult:
**Q:** // lookup survival for CC(NC(=O)C(=O)Nc1c2c(nn1-c1ccccc1)CSC2)c1ccccc1 (stereo unspecified)
**A:** 61

**Q:** Recorded survival of `CC(C)c1ccc(OCC(=O)Nc2cc(-c3ccccc3)no2)cc1` , please.
**A:** 110

**Q:** Consider the compound `COc1ccc2c(Sc3ccc(Cl)cc3)c(C(=O)NCCCN3CCCCC3)[nH]c2c1` and give its measured survival.
**A:** -1

**Q:** Find the recorded survival belonging to `Cc1ccc(NC(=O)Cn2nc(C)c3nn(-c4ccc(Cl)cc4)c(C)c3c2=O)cc1C` and report it.
**A:** 75

**Q:** Suppose we examine the compound `COc1ccc2c(Sc3ccccc3)c(C(=O)NCCc3ccc(Cl)cc3)[nH]c2c1` ; what survival value has been reported?
**A:** 98

Others:
**Q:** // query survival value for entry CCC(CO)NC(=O)C(=O)Nc1c2c(nn1-c1ccc(F)cc1)CSC2 (stereo unspecified)
**A:** 80

**Q:** Need survival, item `COCCCNC(=O)c1[nH]c2ccccc2c1Sc1ccc(C)cc1`
**A:** 69

**Q:** # lookup: survival of `COc1ccc2c(Sc3ccccc3)c(C(=O)NCCCN3CCCCC3)[nH]c2c1`
**A:** 54

**Q:** # survival lookup, item `COc1cccc2c1Oc1ncccc1N(C(=O)CCC(=O)NCc1ccc(OC(C)C)cc1)C2`
**A:** 83

**Q:** // query survival value for entry `CC1CCN(CCCNC(=O)c2cc(Sc3ccc(F)cc3)nc3ccccc23)CC1`
**A:** 68

**Q:** Returns the measured survival for the input compound. Input: CCC1CCCCN1C(=O)Cn1c(=O)n(-c2ccccc2C(F)(F)F)c(=O)c2c(C)c(C(=O)N(C)C)sc21 (stereo unspecified)
**A:** 80

**Q:** What measured survival goes with `Cc1ccccc1NCc1cccn1-c1nnc(N2CCOCC2)s1` ?
**A:** 112

**Q:** Which survival value belongs to `O=C(NCCCN1CCCCC1)c1[nH]c2ccccc2c1Sc1ccc(Cl)cc1` ?
**A:** 7

**Q:** Entry `CC(C)c1nn2c(=O)cc(COC(=O)c3ccccc3NC(=O)C3CCCCC3)nc2s1` has what survival?
**A:** 90

**Q:** Bench note: what survival did COc1ccc(NC(=O)C(C)N2Cc3ccccc3C2=O)cc1OC (stereo unspecified) show?
**A:** 101

**Q:** I'd like to know its survival. The compound in question is CC(NC(=O)C(=O)Nc1c2c(nn1-c1ccc(F)cc1)CSC2)c1ccccc1 (stereo unspecified)
**A:** -2

**Q:** Endpoint output: survival of CC(C(=O)Nc1ccc(F)c(Cl)c1)N1Cc2ccccc2C1=O (stereo unspecified) . Value?
**A:** 8

**Q:** Using the record for Cc1c(C(=O)N(Cc2ccc(N(C)C)cc2)CC2CCCO2)oc2ccc(Br)cc12 (stereo unspecified) , report its survival.
**A:** 58

**Q:** Look up survival for this compound: `CCOCCCNC(=O)c1[nH]c2cc(C)ccc2c1Sc1ccc(Cl)cc1`
**A:** 85

**Q:** Any idea what its survival is? The compound is `CCc1ccccc1N=C1SCC(=O)N1C`
**A:** 88

**Q:** Can you look up the measured survival of O=C(CN1C(=O)C2CCCCN2c2ccc(C(=O)N3CCCC3)cc21)NCc1ccccc1F (stereo unspecified) for me?
**A:** 99
